- systemUnderTest: IRAK4 (Homo sapiens, UniProt Q9NWZ3)
- Construct: endogenous in cells
- Sequence (Q9NWZ3 whole entry): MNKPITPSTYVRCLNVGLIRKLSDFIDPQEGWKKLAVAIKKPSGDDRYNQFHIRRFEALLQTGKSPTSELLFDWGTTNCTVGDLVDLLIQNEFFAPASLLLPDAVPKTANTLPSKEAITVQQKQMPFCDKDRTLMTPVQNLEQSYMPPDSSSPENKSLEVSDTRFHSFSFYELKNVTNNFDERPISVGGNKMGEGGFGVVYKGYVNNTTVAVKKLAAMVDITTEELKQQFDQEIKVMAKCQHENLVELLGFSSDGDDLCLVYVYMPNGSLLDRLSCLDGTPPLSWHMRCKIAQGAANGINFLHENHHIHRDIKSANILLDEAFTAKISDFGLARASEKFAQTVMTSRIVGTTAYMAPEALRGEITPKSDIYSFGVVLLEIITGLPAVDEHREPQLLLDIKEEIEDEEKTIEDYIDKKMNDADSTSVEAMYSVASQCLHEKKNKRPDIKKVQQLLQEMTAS
- experimentNotes: ALE THP1 HTRF (Advanced Lipoxidation End Product THP1 Homogeneous Time Resolved Fluorescence)
- recordedConditions: THP1 cells
testReadout: pEC50
The quantity pEC50 is defined as the negative base-10 logarithm of the molar concentration.

The examples below pair each entry with its known result.
- compound: "N#Cc1cnc2c(cnn2-c2cc(NC3CC(F)(F)C3)c(C(=O)NC3CCC(CCN4CCN(c5ccc(C6CCC(=O)NC6=O)cc5)CC4)CC3)cn2)c1 (stereo not drawn) [P-97]"
  pEC50: 7.06
- compound: "N#Cc1cnc2c(c1)ncn2-c1cc(NC2CCCC2)c(C(=O)N[C@H]2CC[C@H](CN3CCN(c4ccc5c(c4)C(=O)N(C4CCC(=O)NC4=O)C5=O)CC3)CC2)cn1 (stereo partly drawn) [P-53]"
  pEC50: 5.72

Lab note: next compound to report on.
Give reported pEC50 for C[C@H](C#N)Nc1cc(-n2ncc3cc(C#N)c(N)nc32)ncc1C(=O)N[C@H]1CC[C@H](CCN2CCN(c3ccc(C4CCC(=O)NC4=O)cc3)C(C(F)(F)F)C2)CC1 (stereo partly drawn) [P-186] (IRAK4 (Homo sapiens, UniProt Q9NWZ3))
7.47
